# credit: patent US10392404B2

Target: C-RAF (Homo sapiens, UniProt P04049, Y340E/Y341E)
Construct: His tag (implied by nickel chromatography) (cleaved yes); StrepII tag (cleaved yes); MEK1 substrate from E. coli
Sequence (P04049 whole entry Y340E/Y341E): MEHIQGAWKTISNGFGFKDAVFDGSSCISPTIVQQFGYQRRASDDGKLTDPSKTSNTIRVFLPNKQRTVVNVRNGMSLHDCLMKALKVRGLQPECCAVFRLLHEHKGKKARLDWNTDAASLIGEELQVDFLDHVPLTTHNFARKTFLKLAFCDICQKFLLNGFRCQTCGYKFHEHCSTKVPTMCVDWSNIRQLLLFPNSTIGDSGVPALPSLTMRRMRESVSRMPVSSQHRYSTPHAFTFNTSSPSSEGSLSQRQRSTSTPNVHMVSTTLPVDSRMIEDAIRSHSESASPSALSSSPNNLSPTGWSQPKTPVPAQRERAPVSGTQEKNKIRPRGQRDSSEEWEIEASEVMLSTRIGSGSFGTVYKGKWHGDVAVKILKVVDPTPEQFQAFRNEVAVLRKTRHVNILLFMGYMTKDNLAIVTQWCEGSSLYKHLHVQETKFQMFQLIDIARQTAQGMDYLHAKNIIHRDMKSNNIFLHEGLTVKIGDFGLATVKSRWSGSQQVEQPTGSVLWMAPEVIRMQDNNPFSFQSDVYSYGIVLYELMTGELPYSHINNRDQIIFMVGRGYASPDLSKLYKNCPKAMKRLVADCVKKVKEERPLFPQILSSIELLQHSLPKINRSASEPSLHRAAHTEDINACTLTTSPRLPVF
Sequence (P63104 whole entry partner): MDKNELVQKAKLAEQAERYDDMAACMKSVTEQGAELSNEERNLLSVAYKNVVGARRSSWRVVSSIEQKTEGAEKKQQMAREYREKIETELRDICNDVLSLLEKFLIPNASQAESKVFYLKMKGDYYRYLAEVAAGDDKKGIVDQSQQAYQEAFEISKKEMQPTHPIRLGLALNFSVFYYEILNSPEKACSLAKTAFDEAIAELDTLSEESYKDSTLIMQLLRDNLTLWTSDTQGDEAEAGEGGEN
Assay: In vitro Raf activity determination (Alpha Screen, biotinylated kinase-dead MEK1 substrate), C-Raf
Conditions: c-Raf approximately 4 nM; ATP 1 μM; pre-incubation 60 minutes; reaction 1 hour at room temperature
Excerpt: CRAF cDNA was subcloned as full length protein, with Y340E and Y341E activating mutations, into a baculovirus expression vector for Sf9 insect cell expression. h14-3-3 zeta cDNA was subcloned into a baculovirus expression vector for SF9 insect cell expression. Sf9 cells co-expressing both proteins were lysed and subjected to immobilized nickel chromatography and eluted with Imidazole. A second column (StrepII binding column) was used and eluted with desthiobiotin. […]
pIC50: −log10 of the molar value.
Would you please tag the item met when its pIC50 is 9 or above, and not met when it is below?

Record Cc1ncc(NC(=O)c2cc(C(C)(C)C#N)ccn2)cc1-c1cnc(N2CC(C)(O)C2)c(C#N)c1 [Example 231] ; criterion: pIC50 no lower than 9. Met?
not met

Record Cc1ccc(NC(=O)c2ccnc(C(C)(C)C#N)c2)cc1-c1cnc(NC2CCOCC2)c(C#N)c1 [Example 60] ; criterion: pIC50 no lower than 9. Met?
met

Record Cc1ncc(NC(=O)c2ccnc(C(C)(C)C#N)c2)cc1-c1cnc(NC2COC2)c(C#N)c1 [Example 80] ; criterion: pIC50 no lower than 9. Met?
not met

Record CCNc1ncc(-c2cc(NC(=O)c3cccc(C(F)(F)F)c3)ccc2C)cc1C#N [Example 23] ; criterion: pIC50 no lower than 9. Met?
met

Record Cc1ccc(NC(=O)c2ccnc(C(F)(F)F)c2)cc1-c1cnc(NC2CC2)c(C#N)c1 [Example 21] ; criterion: pIC50 no lower than 9. Met?
met

Here's the next entry for you.
Record Cc1ncc(NC(=O)c2ccnc(C(F)(F)F)c2)cc1-c1cnc(N2CC(O)C2)c(C#N)c1 [Example 69] ; criterion: pIC50 no lower than 9. Met?
met

====

Reported IC50 is given for each of the following molecules.
Target: C-RAF (Homo sapiens, UniProt P04049, Y340E/Y341E)
Construct: His tag (implied by nickel chromatography) (cleaved yes); StrepII tag (cleaved yes); MEK1 substrate from E. coli
Test: In vitro Raf activity determination (Alpha Screen, biotinylated kinase-dead MEK1 substrate), C-Raf
Settings: c-Raf approximately 4 nM; ATP 1 μM; pre-incubation 60 minutes; reaction 1 hour at room temperature
Source text: CRAF cDNA was subcloned as full length protein, with Y340E and Y341E activating mutations, into a baculovirus expression vector for Sf9 insect cell expression. h14-3-3 zeta cDNA was subcloned into a baculovirus expression vector for SF9 insect cell expression. Sf9 cells co-expressing both proteins were lysed and subjected to immobilized nickel chromatography and eluted with Imidazole. A second column (StrepII binding column) was used and eluted with desthiobiotin. […]
The reply should be a number in pM, with the unit left off.

Worked examples follow.
# IC50 of "Cc1ncc(NC(=O)c2ccnc(C(C)(C)F)c2)cc1-c1cnc(N2CC(C)(O)C2)c(C#N)c1" = 1740

# IC50 of "Cc1ccc(NC(=O)c2cc(C(C)(C)O)ccn2)cc1-c1cnc(N2CCOCC2)c(C#N)c1" = 695

# IC50 of "Cc1ncc(NC(=O)c2ccnc(C(C)C)c2)cc1-c1cnc(C2CCOCC2)c(C#N)c1" = 879

Further cases:
# IC50 of "Cc1ccc(NC(=O)c2ccnc(S(C)(=O)=O)c2)cc1-c1cnc(N(C)C)c(C#N)c1" = 106

# IC50 of "Cc1ccc(NC(=O)c2ccnc(S(C)(=O)=O)c2)cc1-c1cnc(C2CCOCC2)c(C#N)c1" = 511

====

Reported pIC50 is given for each of the following compounds.
Biological target: C-RAF (Homo sapiens, UniProt P04049, Y340E/Y341E)
Construct: His tag (implied by nickel chromatography) (cleaved yes); StrepII tag (cleaved yes); MEK1 substrate from E. coli
Assay: In vitro Raf activity determination (Alpha Screen, biotinylated kinase-dead MEK1 substrate), C-Raf
Conditions: c-Raf approximately 4 nM; ATP 1 μM; pre-incubation 60 minutes; reaction 1 hour at room temperature
Text: CRAF cDNA was subcloned as full length protein, with Y340E and Y341E activating mutations, into a baculovirus expression vector for Sf9 insect cell expression. h14-3-3 zeta cDNA was subcloned into a baculovirus expression vector for SF9 insect cell expression. Sf9 cells co-expressing both proteins were lysed and subjected to immobilized nickel chromatography and eluted with Imidazole. A second column (StrepII binding column) was used and eluted with desthiobiotin. […]
Just so you know, pIC50 here is -log10 of the concentration in molar units; reply with that number alone.

# pIC50 of CNc1ncc(-c2cc(NC(=O)c3cccc(C(F)(F)F)c3)cnc2C)cc1C#N [Example 8] = 9.60

# pIC50 of COCCNc1ncc(-c2cc(NC(=O)c3cc(C(F)(F)F)ccn3)ccc2C)cc1C#N [Example 228] = 9.39

Further cases:
# pIC50 of Cc1ncc(NC(=O)c2cnnc(C(C)(C)C#N)c2)cc1-c1cnc(N2CCOCC2)c(C#N)c1 [Example 207] = 8.87

# pIC50 of Cc1ncc(NC(=O)c2cc(C3CC3)nn2C)cc1-c1cnc(N(C)C)c(C#N)c1 [Example 266] = 7.51

# pIC50 of Cc1ccc(NC(=O)c2cn(C(C)C)nc2C)cc1-c1cnc(N(C)C)c(C#N)c1 [Example 253] = 8.60

# pIC50 of Cc1ncc(NC(=O)c2ccnc(C(F)(F)F)c2)cc1-c1cnc(C2CCOCC2)c(C#N)c1 [Example 127] = 9.33

# pIC50 of Cc1ncc(NC(=O)c2ccnc(C(F)(F)F)c2)cc1-c1cnc(-c2cccnc2)c(C#N)c1 [Example 104] = 9.23

# pIC50 of Cc1ccc(NC(=O)c2ccnc(C(C)(F)F)c2)cc1-c1cnc(N2CCNCC2)c(C#N)c1 [Example 161] = 9.82

====

Reported pIC50 is given for each of the following compounds.
Molecular target: C-RAF (Homo sapiens, UniProt P04049, Y340E/Y341E)
Construct: His tag (implied by nickel chromatography) (cleaved yes); StrepII tag (cleaved yes); MEK1 substrate from E. coli
Test: In vitro Raf activity determination (Alpha Screen, biotinylated kinase-dead MEK1 substrate), C-Raf
Conditions: c-Raf approximately 4 nM; ATP 1 μM; pre-incubation 60 minutes; reaction 1 hour at room temperature
Just so you know, pIC50 here is -log10 of the concentration in molar units; reply with that number alone.

Worked examples follow.
# pIC50 of "Cc1ccc(NC(=O)c2ccnc(C(C)(C)O)c2)cc1-c1cnc(N(C)C)c(C#N)c1" = 9.45

# pIC50 of "COCCNc1ncc(-c2cc(NC(=O)c3cnnc(C(F)(F)F)c3)cnc2C)cc1C#N" = 8.09

# pIC50 of "Cc1ccc(NC(=O)c2ccnc(C(C)(C)C#N)c2)cc1-c1cnc(N2CCNCC2)c(C#N)c1" = 9.45

# pIC50 of "Cc1ccc(NC(=O)c2ccnc(S(C)(=O)=O)c2)cc1-c1cnc(N2CCOCC2)c(C#N)c1" = 10.22

# pIC50 of "Cc1ncc(NC(=O)c2cccc(S(C)(=O)=O)c2)cc1-c1cnc(N2CC(C)(O)C2)c(C#N)c1" = 8.38

Further cases:
# pIC50 of "Cc1ccc(NC(=O)c2cccc(C(F)(F)F)c2)cc1-c1cnc(N(C)C)c(C#N)c1" = 10.13

# pIC50 of "Cc1ccc(NC(=O)c2cnnc(C(F)(F)F)c2)cc1-c1cnc(N2CCOCC2)c(C#N)c1" = 10.01

# pIC50 of "Cc1ncc(NC(=O)c2ccnc(C(F)(F)F)c2)cc1-c1cnc(N2CCNCC2)c(C#N)c1" = 9.38

# pIC50 of "Cc1ccc(NC(=O)c2ccnc(C3(C#N)CC3)c2)cc1-c1cnc(N2CCOCC2)c(C#N)c1" = 9.94

# pIC50 of "Cc1ncc(NC(=O)c2ccnc(C(C)C)c2)cc1-c1cnc(N2CCOCC2)c(C#N)c1" = 9.48

# pIC50 of "CNc1ncc(-c2cc(C(=O)Nc3cccc(C(F)(F)F)c3)ccc2C)cc1C#N" = 9.25

# pIC50 of "Cc1ncc(NC(=O)c2ccnc(C(F)(F)F)c2)cc1-c1cnc(S(C)(=O)=O)c(C#N)c1" = 8.95

# pIC50 of "Cc1ncc(NC(=O)c2ccnc(C(F)F)c2)cc1-c1cnc(N2CC(C)(O)C2)c(C#N)c1" = 8.13

# pIC50 of "Cc1ncc(NC(=O)c2cnnc(C(F)(F)F)c2)cc1-c1cnc(NC2CCOCC2)c(C#N)c1" = 8.90

# pIC50 of "Cc1ncc(NC(=O)c2ccnc(C(C)(C)C#N)c2)cc1-c1cnc(N(C)C)c(C#N)c1" = 8.75

# pIC50 of "COCCNc1ncc(-c2cc(NC(=O)c3cc(C(F)(F)F)ccn3)cnc2C)cc1C#N" = 8.86
